These measurements were taken from ChEMBL document CHEMBL5154872.

Each entry below lists one item and its recorded IC50 value.
target: Programmed cell death protein 1/Programmed cell death 1 ligand 1 (Homo sapiens, UniProt Q9NZQ7)
Sequence (Q15116 whole entry): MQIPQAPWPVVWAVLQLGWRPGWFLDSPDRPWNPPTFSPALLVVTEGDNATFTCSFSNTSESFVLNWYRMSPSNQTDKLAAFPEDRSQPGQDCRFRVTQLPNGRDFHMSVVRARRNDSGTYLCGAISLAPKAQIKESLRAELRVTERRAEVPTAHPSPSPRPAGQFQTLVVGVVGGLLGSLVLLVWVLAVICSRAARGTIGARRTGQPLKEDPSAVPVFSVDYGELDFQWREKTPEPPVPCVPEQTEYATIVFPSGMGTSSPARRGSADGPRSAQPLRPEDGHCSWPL
Sequence (Q9NZQ7 whole entry): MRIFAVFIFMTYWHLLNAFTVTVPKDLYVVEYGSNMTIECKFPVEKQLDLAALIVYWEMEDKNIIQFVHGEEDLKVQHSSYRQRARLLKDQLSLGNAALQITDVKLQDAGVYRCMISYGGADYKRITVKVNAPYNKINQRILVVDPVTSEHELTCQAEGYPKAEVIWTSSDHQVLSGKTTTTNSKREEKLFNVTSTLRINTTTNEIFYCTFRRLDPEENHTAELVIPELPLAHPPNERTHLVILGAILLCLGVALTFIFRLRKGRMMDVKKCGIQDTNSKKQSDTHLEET
experiment.notes: Inhibition of human PD-1/PD-L1 interaction in CHO-K1 cells transfected with PD-1-YFP/SHP-2-CFP and measured by FRET assay
Report the value in nM with no unit label.

Recorded IC50, per entry:
O=C1CC(c2ccc(C(F)(F)F)cc2)=NN1c1ccccn1 143
O=C1CC(C23CC4CC(CC(C4)C2)C3)=NN1c1ccc(Cl)cc1Cl 9

Field request: IC50 | item: COc1ccc(C2=NN(c3ccccn3)C(=O)C2)cc1OC
7.3

---

target: Programmed cell death 1 ligand 1 (Homo sapiens)
Sequence (Q9NZQ7 whole entry): as above
experiment.notes: Binding affinity towards His-tagged recombinant human PD-L1 measured by MST dimerization binding assay
Type: single protein
Simple rule here: Kd less than 2 nM is yes (1), otherwise no (0).

As a guide, the following entries are already answered.
COc1ccc(C2=NN(c3ccccn3)C(=O)C2)cc1OC yes (1)
COc1ccccc1C1=NN(c2ccccn2)C(=O)C1 no (0)
O=C1CC(C23CC4CC(CC(C4)C2)C3)=NN1c1ccc(Cl)cc1Cl no (0)

Now for a further compound.
Say whether its Kd is strictly beneath 2 nM. Entry: CC1=NN(c2ccccn2)C(=O)C1
no (0)
